target: VP1 pentamer of BKV genotype II (recombinant) (BK virus genotype II), P14996; assay: ELISA, coated VP1 pentamer; settings: remark: other sources report otherwise
value.type: EC50
Returns: string containing the numeric result and its unit.

Reference set (4 entries):
binder	value.type	result
antibody E8P5 (antibody, V domains shown) VH: EVQLVESGGGLVHPGGSLRLSCAASGFRFGTYSMNWVRQAPGKGLEWVSHISSGSSSIYYADSVKGRFTISRDSVKNSLYLQMNNLRAEDTAVYFCARGWTGYDAFDIWGQGTMVTVSS VL: DIQMTQSPSSLSASVGDRVTITCRASQVISNYLAWYQEKPGEVPKLLIYAASTLQSGVPSRFSGSGTGTDFTLTISSLQPEDVATYYCQKYNNAPLTFGGGTKVEIK	EC50	0.08 µg/mL
antibody C4P7 (antibody, V domains shown) VH: EVQLLESGGGLVQPGGSLRLSCAASGFTFSSYAMSWVRQAPGKGLEWVSSLTGSGGSTYYRDSVKGRFTIFRDNSKKTLYMQMNSLRAEDTAVYYCAKEGAYSYDFWYFDLWGRGTLVTVSS VL: EIVLTQSPGTLSLSPGERATLSCRASQTVSGNYLAWYQQKPGQSPSLLIYGASSRATGIPDRFTGSGSGTDFTLTISRLEPADFAVYYCQQYGRPLTFGGGTKVEIK	EC50	5 µg/mL
antibody B7P3 (antibody, V domains shown) VH: EVQLVESGGGVVQPGRSLRLSCAASGFTFSNFGMHWVRQPPGKGLEWVAVISYDGSDKFYADSVKGRFTISRDNFKNTLYVQMNSLRAEDTAVYYCAKDRVRTKYYYDHSGPFDYWGRGTLVTVSS VL: SYVLTQPPSVSVAPGQTARIACGGNNIGSKSVHWYQQRPGQAPVLVVYDDDDRPSGIPERFSGSNSGNTATLTISRVEAGDEADYFCQVWMTNSDRPVFGGGTKLTVL	EC50	5.5 µg/mL
antibody G7P3 (antibody, V domains shown) VH: EVQLVESGGGLVQPGGSLRLSCAASGFSFGSYSMNWVRQAPGKGLEWVSHISSGSSSIYYADSVKGRFTISRDSVKNSLYLQMNNLRAEDTAVYYCARGWTGYDAFDIWGQGTMVTVSS VL: DIQMTQSPSSLSASVGDRVTITCRASQVISNYLAWYQEKPGKVPKLLIYAASTLQSGVPSRFSGSGTGTDFTLTIRSLQPEDVATYYCQKYNNAPLTFGGGTKVEIK	EC50	0.04 µg/mL

Switching to the query record.
Give its EC50 value. Item: antibody E10P5 (antibody, V domains shown) VH: QVQLQESGPGLVKPSQTLSLTCSVSGGSISSGNYYWSWIRQPAGKGLEWIGRIYTSGNTNYNPSLKSRVTMSVDTSKNQFSLKLSSVTATDTAVYYCARVRRDGYNAFDYWGQGTLVTVSS VL: SYELTQPPSVSVSPGQTASIDCSGHNLGDKFTCWYQQKPGQSPVLVIYQDSKRPSGIPERFSGSNSGNTATLTISGTQAMDEADYYCQAWDSDTLYVFGTGTTVTVL
0.065 µg/mL
